Measured kon values are reported for all entries that follow.
molecular target: T1, hK1 (human tissue kallikrein 1), recombinant (human, UniProt P06870 25-262); test: SPR
T1 construct: Expressed in P. pastoris from KLK1 cDNA and purified; enzymatically active; also called KLK1; Recombinant (Pichia) Kallikrein
Unit M⁻¹ s⁻¹ implied. Number only.

binder	kon / M⁻¹ s⁻¹
M0134-B03 (Fab, V domains shown) VH: EVQLLESGGGLVQPGGSLRLSCAASGFTFSHYSMFWVRQAPGKGLEWVSSIYPSGGQTDYADSVKGRFTISRDNSKNTLYLQMNSLRAEDTAVYYCARRGLLWSFDSWGQGTLVTVSS VL: AQSALTQPPSASGSPGQSVTISCTGTSSDVGAYNYVSWYQQHPGKAPKLIIYEVNKRPSGVPDRFSASKSGNTASLTVSGLQAEDEADYYCNSYAGSNSLIFGGGTKLTVLG	399000
M0102-C02 (Fab, V domains shown) VH: EVQLLESGGGLVQPGGSLRLSCAASGFTFSHYLMHWVRQAPGKGLEWVSSIYPSGGKTQYADSVKGRFTISRDNSKNTLYLQMNSLRAEDTAVYYCARVFGYYDFWSGYPGAFDYWGQGTLVTVSS VL: DIQMTQSPSSLSASVGDRVTITCRASQGISSSLAWYQQKPGKVPKLLIYAASTLQSGVPSRFSGSGSGTDFTLTISSLQPEDFATYYCQQSYSTPWTFGQGTKVEIKR	144000

Attention now shifts to the item below.
Entry M0096-E11 (Fab, V domains shown) VH: EVQLLESGGGLVQPGGSLRLSCAASGFTFSHYLMYWVRQAPGKGLEWVSSIYPSGGFTAYADSVKGRFTISRDNSKNTLYLQMNSLRAEDTAVYYCARRGVYGTFDIWGQGTMVTVSS VL: DIQMTQSPLSLSASVGDRVTMTCRASQTISSYLNWYQQKPGKAPKLLIYTTSSLQSGVPSRFSGSGSGTEFTLTISSLQPEDFATYYCQQSHSSPTFGGGTKVEIKR ; kon = 827000
